biological target: T1, human serum albumin (human, UniProt P02768 25-609); assay: SPR (Biacore), albumin captured on CM5 chip, SABA flowed
T1 construct: also called HSA
T1 sequence (P02768 25-609 limits assumed): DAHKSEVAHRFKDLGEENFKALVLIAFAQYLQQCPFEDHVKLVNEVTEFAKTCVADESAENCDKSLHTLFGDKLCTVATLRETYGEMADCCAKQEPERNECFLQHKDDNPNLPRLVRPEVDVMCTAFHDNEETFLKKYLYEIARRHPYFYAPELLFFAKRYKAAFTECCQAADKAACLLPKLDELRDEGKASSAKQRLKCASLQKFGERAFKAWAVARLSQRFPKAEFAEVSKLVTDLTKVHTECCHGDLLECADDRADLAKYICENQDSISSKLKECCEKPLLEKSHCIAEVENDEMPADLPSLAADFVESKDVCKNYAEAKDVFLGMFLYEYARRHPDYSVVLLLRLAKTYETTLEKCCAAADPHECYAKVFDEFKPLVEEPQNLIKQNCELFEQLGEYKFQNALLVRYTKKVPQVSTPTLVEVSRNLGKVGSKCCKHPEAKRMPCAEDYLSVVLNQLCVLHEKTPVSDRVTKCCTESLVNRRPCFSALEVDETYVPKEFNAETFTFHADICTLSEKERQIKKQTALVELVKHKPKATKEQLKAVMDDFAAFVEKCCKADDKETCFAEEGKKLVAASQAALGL
parameter: pKd
Please note pKd is a logarithmic value: minus log10 of concentration in mol/L. Answer with that number alone.

Reference set (3 entries):
INSERT INTO assay_data (binder, parameter, measured_number) VALUES
  ('SABA3.1 (designed binder) MGVSDVPRDLEVVAATPTSLLISWSNDGPGLSYYRITYGETGGNSPVQEFTVPSSQTTATISGLKPGVDYTITVYAVSYYTKKAYSAGPISINYRTEIDKPSQHHHHHH', 'pKd', 6.06),
  ('SABA2.1 (designed binder) MGVSDVPRDLEVVAATPTSLLISWPKYDKTGHYYRITYGETGGNSPVQEFTVPTRQTTATISGLKPGVDYTITVYAVSKDDYYPHEHRPISINYRTEIDKPSQHHHHHH', 'pKd', 7.47),
  ('SABA1.1 (designed binder) MGVSDVPRDLEVVAATPTSLLISWHSYYEQNSYYRITYGETGGNSPVQEFTVPYSQTTATISGLKPGVDYTITVYAVYGSKYYYPISINYRTEIDKPSQHHHHHH', 'pKd', 7.33);

Now examine the next entry.
Entry under review: SABA4.1 (designed binder) MGVSDVPRDLEMVAATPTSLLISWEDDSYYSRYYRITYGETGGNSPVQEFTVPSDLYTATISGLKPGVDYTITVYAVTYDVTDLIMHEPISINYRTEIDKPSQHHHHHH . Reported pKd? 6.39

The measurements presented in this section are drawn from patent US20130012436A1.
